target: RAC-alpha serine/threonine-protein kinase (Homo sapiens, UniProt P31749); experiment: Inhibition of AKT1
Sequence (P31749 whole entry): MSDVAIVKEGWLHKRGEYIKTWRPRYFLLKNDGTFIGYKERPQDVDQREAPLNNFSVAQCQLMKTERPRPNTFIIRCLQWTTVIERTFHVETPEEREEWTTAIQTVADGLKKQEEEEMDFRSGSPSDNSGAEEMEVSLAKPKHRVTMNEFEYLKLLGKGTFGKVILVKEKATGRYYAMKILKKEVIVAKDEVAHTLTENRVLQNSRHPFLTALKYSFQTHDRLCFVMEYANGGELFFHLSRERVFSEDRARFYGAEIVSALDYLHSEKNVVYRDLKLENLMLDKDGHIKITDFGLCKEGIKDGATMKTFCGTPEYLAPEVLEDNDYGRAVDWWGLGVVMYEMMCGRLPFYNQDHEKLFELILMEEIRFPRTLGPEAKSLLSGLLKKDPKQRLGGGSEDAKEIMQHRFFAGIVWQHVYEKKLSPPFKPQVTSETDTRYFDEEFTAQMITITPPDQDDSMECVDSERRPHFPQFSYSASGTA
Rule: IC50 below 10 nM gives t, anything at or above gives f.

>  <smiles-representation>
c1ccc(-c2nnc[nH]2)c(Nc2ncnc3[nH]ccc23)c1

>  <target-entity>
RAC-alpha serine/threonine-protein kinase (Homo sapiens, UniProt P31749)

>  <category>
f

$$$$
>  <smiles-representation>
Cc1c[nH]c2ncnc(N3CC4(CCNCC4)c4ccccc43)c12

>  <target-entity>
RAC-alpha serine/threonine-protein kinase (Homo sapiens, UniProt P31749)

>  <category>
t

$$$$
>  <smiles-representation>
Clc1c[nH]c2ncnc(N3CC4(CCNCC4)c4ccccc43)c12

>  <target-entity>
RAC-alpha serine/threonine-protein kinase (Homo sapiens, UniProt P31749)

>  <category>
t

$$$$
>  <smiles-representation>
Clc1ccc2c(c1)C1(CCNCC1)CN2c1ncnc2[nH]ccc12

>  <target-entity>
RAC-alpha serine/threonine-protein kinase (Homo sapiens, UniProt P31749)

>  <category>
t

$$$$
>  <smiles-representation>
c1nc(N2CCc3nc[nH]c3C2)c2cc[nH]c2n1

>  <target-entity>
RAC-alpha serine/threonine-protein kinase (Homo sapiens, UniProt P31749)

>  <category>
f

$$$$
>  <smiles-representation>
Cc1nnc(-c2cc(Cl)ccc2Nc2ncnc3[nH]ccc23)[nH]1

>  <target-entity>
RAC-alpha serine/threonine-protein kinase (Homo sapiens, UniProt P31749)

>  <category>
f

$$$$

Check if IC50 falls below 10 nM for CS(=O)(=O)N1CCC2(CC1)CN(c1ncnc3[nH]ccc13)c1ccc(F)cc12 .
f

Hi there! Is IC50 for Cc1nnc(-c2ccc(Cl)cc2Nc2ncnc3[nH]ccc23)[nH]1 below 10 nM, do you know?
f

====

biological target: RAC-alpha serine/threonine-protein kinase (Homo sapiens); assay: Inhibition of AKT1 in human U87 cells after 2 hrs by ELISA; format: cell-based, U-87MG ATCC
quantity-measured: IC50 (nM)
One number for each entry, in nM.

Consider the reported IC50 for these compounds:
>  <smiles-representation>
N#Cc1c[nH]c2ncnc(N3CC4(CCNCC4)c4ccccc43)c12

>  <target-entity>
RAC-alpha serine/threonine-protein kinase (Homo sapiens)

>  <u>
nM

>  <IC50>
50

$$$$
>  <smiles-representation>
CN1CCC2(CC1)CN(c1ncnc3[nH]ccc13)c1ccccc12

>  <target-entity>
RAC-alpha serine/threonine-protein kinase (Homo sapiens)

>  <u>
nM

>  <IC50>
136

$$$$
>  <smiles-representation>
Clc1c[nH]c2ncnc(N3CC4(CCNCC4)c4ccccc43)c12

>  <target-entity>
RAC-alpha serine/threonine-protein kinase (Homo sapiens)

>  <u>
nM

>  <IC50>
64

$$$$

Take each entry in turn and give its IC50.
1. c1ccc2c(c1)N(c1ncnc3[nH]ccc13)CC21CCNCC1
2. Cc1c[nH]c2ncnc(N3CC4(CCNCC4)c4ccccc43)c12
3. Clc1ccc2c(c1)C1(CCNCC1)CN2c1ncnc2[nH]ccc12
4. Fc1ccc2c(c1)C1(CCNCC1)CN2c1ncnc2[nH]ccc12

[96, 122, 51, 75]

====

biological target: RAC-alpha serine/threonine-protein kinase (Homo sapiens); experiment: Inhibition of AKT1
quantity-measured: pIC50
Numbers only, as −log10 of the molar value.

Some solved cases for reference:
>  <smiles-representation>
c1ccc2c(c1)N(c1ncnc3[nH]ccc13)CC21CCNCC1

>  <quantity-measured>
pIC50

>  <observed-value>
8.28

$$$$
>  <smiles-representation>
Clc1c[nH]c2ncnc(Nc3ccccc3-c3nnc[nH]3)c12

>  <quantity-measured>
pIC50

>  <observed-value>
6.50

$$$$
>  <smiles-representation>
N#Cc1c[nH]c2ncnc(N3CC4(CCNCC4)c4ccccc43)c12

>  <quantity-measured>
pIC50

>  <observed-value>
8.62

$$$$

Each compound below has a recorded value; state its pIC50.
1. CN1CCC2(CC1)CN(c1ncnc3[nH]ccc13)c1ccccc12
2. CC(=O)N1CCC2(CC1)CN(c1ncnc3[nH]ccc13)c1ccc(F)cc12
3. Cc1c[nH]c2ncnc(Nc3ccccc3-c3nnc[nH]3)c12
4. Fc1ccc2c(c1)C1(CCNCC1)CN2c1ncnc2[nH]ccc12
5. c1ccc(Cc2c[nH]c3ncnc(N4CC5(CCNCC5)c5ccccc54)c23)cc1

1: 7.90; 2: 5.55; 3: 6.37; 4: 8.51; 5: 5.88
